Test system: L1210 leukemia ip in BDF1 mice, survival T/C
Experiment: NCI In Vivo Anticancer Drug Screen. Data for tumor model L1210 Leukemia (intraperitoneal) in B6D2F1 (BDF1) mice
Details: endpoint: mean survival time; dose: 400.0 mg/kg/injection; schedule: Q01DX001 (ip); vehicle: Klucel (hydroxypropylcellulose) (HPC); higher = longer survival
Description: The antitumor activity of compounds was measured in mice bearing transplantable tumors. Survival or tumor size were measured and the results are expressed as the measurement made in the treated group (T) divided by the measurement made in the vehicle treated control group (C). The tumor model used in this assay is L1210 Leukemia (intraperitoneal) in B6D2F1 (BDF1) mice
Toxic doses and inconclusive results are not listed.
Entries and their T/C values follow.

{"MOLECULE": "CCOc1ccc(-n2cnc3ccccc3c2=O)cc1CN(CCCl)CCCl", "TEST_SYSTEM": "L1210 leukemia ip in BDF1 mice, survival T/C", "T/C": "100 % of control"}
{"MOLECULE": "C=C(C)COc1c(C)c(C)c(OS(=O)(=O)c2ccc(Br)cc2)c(C)c1C", "TEST_SYSTEM": "L1210 leukemia ip in BDF1 mice, survival T/C", "T/C": "100 % of control"}
{"MOLECULE": "CC1CC(C)(C)N/C(=C/C(=O)N2Cc3cc4ccccc4nc3C2)O1 (stereo not drawn)", "TEST_SYSTEM": "L1210 leukemia ip in BDF1 mice, survival T/C", "T/C": "88 % of control"}
{"MOLECULE": "Cc1cccc(C)c1Oc1ccc([N+](=O)[O-])cc1[N+](=O)[O-]", "TEST_SYSTEM": "L1210 leukemia ip in BDF1 mice, survival T/C", "T/C": "117 % of control"}
{"MOLECULE": "CS(=O)(=O)Oc1cccc(C2CS(=O)(=O)c3ccccc3N2)c1 (stereo not drawn)", "TEST_SYSTEM": "L1210 leukemia ip in BDF1 mice, survival T/C", "T/C": "103 % of control"}
{"MOLECULE": "COc1ccc2c(n1)Sc1c(Cl)nc(Cl)nc1N2", "TEST_SYSTEM": "L1210 leukemia ip in BDF1 mice, survival T/C", "T/C": "98 % of control"}
{"MOLECULE": "COc1ccccc1C(=O)NC(=S)Nc1ccc(Cl)c(Cl)c1", "TEST_SYSTEM": "L1210 leukemia ip in BDF1 mice, survival T/C", "T/C": "107 % of control"}
{"MOLECULE": "CC1(C)OC2C(CO)OC(n3nnc4c(SCc5ccccc5)nc(N)nc43)C2O1 (stereo not drawn)", "TEST_SYSTEM": "L1210 leukemia ip in BDF1 mice, survival T/C", "T/C": "101 % of control"}
{"MOLECULE": "CN(C)C(=S)Oc1ccc(C(=O)O)cc1", "TEST_SYSTEM": "L1210 leukemia ip in BDF1 mice, survival T/C", "T/C": "88 % of control"}
{"MOLECULE": "CO[N+](=O)c1cc(C(C)(C)C)c([O-])c(C(C)(C)C)c1", "TEST_SYSTEM": "L1210 leukemia ip in BDF1 mice, survival T/C", "T/C": "92 % of control"}
{"MOLECULE": "CCCCCCCCCCCCCCCCCCN=C(Cl)Cl", "TEST_SYSTEM": "L1210 leukemia ip in BDF1 mice, survival T/C", "T/C": "98 % of control"}
{"MOLECULE": "O=C(CNCc1ccccc1)c1ccc(Cl)cc1", "TEST_SYSTEM": "L1210 leukemia ip in BDF1 mice, survival T/C", "T/C": "93 % of control"}
{"MOLECULE": "[N-]=[N+]=C1C(=O)NC(=O)NC1C(=O)O (stereo not drawn)", "TEST_SYSTEM": "L1210 leukemia ip in BDF1 mice, survival T/C", "T/C": "86 % of control"}
{"MOLECULE": "COc1cc(N)ccc1C(=O)NC(CCC(=O)O)C(=O)O (stereo not drawn)", "TEST_SYSTEM": "L1210 leukemia ip in BDF1 mice, survival T/C", "T/C": "103 % of control"}
{"MOLECULE": "CC(/C=C/c1ccc2c(c1)OCO2)[N+](=O)[O-] (stereo not drawn)", "TEST_SYSTEM": "L1210 leukemia ip in BDF1 mice, survival T/C", "T/C": "106 % of control"}
{"MOLECULE": "COc1ccccc1-n1c(O)c(N=Nc2ccc(C)cc2)c(=O)n(-c2ccccc2)c1=S", "TEST_SYSTEM": "L1210 leukemia ip in BDF1 mice, survival T/C", "T/C": "91 % of control"}
{"MOLECULE": "CC(CC(=O)NC(N)=O)(NC(N)=O)NC(N)=O", "TEST_SYSTEM": "L1210 leukemia ip in BDF1 mice, survival T/C", "T/C": "95 % of control"}
{"MOLECULE": "Nc1ncnc2c(-c3ccccc3)c[nH]c12", "TEST_SYSTEM": "L1210 leukemia ip in BDF1 mice, survival T/C", "T/C": "91 % of control"}
{"MOLECULE": "Cc1ccc(S(=O)(=O)NCc2cccc([N+](=O)[O-])c2)cc1", "TEST_SYSTEM": "L1210 leukemia ip in BDF1 mice, survival T/C", "T/C": "96 % of control"}
{"MOLECULE": "CC(=O)Nc1ccc(S(=O)(=O)CO)cc1", "TEST_SYSTEM": "L1210 leukemia ip in BDF1 mice, survival T/C", "T/C": "102 % of control"}
{"MOLECULE": "COc1ccc(C(O)C(C)C(O)(C(F)(F)F)C(F)(F)F)cc1 (stereo not drawn)", "TEST_SYSTEM": "L1210 leukemia ip in BDF1 mice, survival T/C", "T/C": "111 % of control"}
{"MOLECULE": "COc1cc([N+](=O)[O-])cc(OC)c1OC", "TEST_SYSTEM": "L1210 leukemia ip in BDF1 mice, survival T/C", "T/C": "97 % of control"}
{"MOLECULE": "O=C(NC(CS(=O)(=O)O)C(=O)O)OCc1ccccc1 (stereo not drawn)", "TEST_SYSTEM": "L1210 leukemia ip in BDF1 mice, survival T/C", "T/C": "91 % of control"}
